B1: r11_951_TrROS_Hall (parent)
chain: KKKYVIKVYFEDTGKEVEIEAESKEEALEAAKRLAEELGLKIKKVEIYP

# Variants of: B1
# Procedure Details: folding stability dG (cDNA display proteolysis); higher = more stable
# Settings: PBS, room temperature
Param threshold (4 kcal/mol) applies to folding stability dG; output true when value >= threshold, false when value < threshold.

Entry "E26C" : is its folding stability dG no less than 4 kcal/mol?
true
